target: T1, human CCR2 (CC-Chemokine Receptor 2) (human, UniProt P41597 1-374); assay: flow cytometry on CHO-huCCR2 cells, PE anti-human IgG
T1 construct: whole, on cells; also called huCCR2; CHO-huCCR2
T1 sequence (P41597 whole entry): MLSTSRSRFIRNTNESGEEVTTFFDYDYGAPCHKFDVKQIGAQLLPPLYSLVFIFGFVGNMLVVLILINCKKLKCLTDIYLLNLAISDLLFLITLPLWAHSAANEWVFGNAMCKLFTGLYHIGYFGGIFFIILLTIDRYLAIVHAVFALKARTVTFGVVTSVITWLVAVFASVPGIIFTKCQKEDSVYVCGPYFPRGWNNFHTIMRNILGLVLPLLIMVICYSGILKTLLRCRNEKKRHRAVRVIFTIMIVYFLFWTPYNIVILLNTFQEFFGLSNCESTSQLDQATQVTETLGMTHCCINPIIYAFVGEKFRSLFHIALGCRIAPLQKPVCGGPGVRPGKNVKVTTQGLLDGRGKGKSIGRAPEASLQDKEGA
Rule: EC50 below 2 nM gives met. Equal to or above 2 nM gives not met.

## Task Is it true that EC50 reported for D1-4/LO (antibody, V domains shown, tested as IgG. '/LO' not explained) VH: QVQLVQSGAEVKKPGASVKVSCKASGYTFTGYYMHWVRQAPGQGLEWMGIINPSGGSTSYAQKFQGRVTMTRDTSTSTVYMELSSLRSEDTAVYYCATGGFGYWGEGTLVTVSS VL: LPVLTQPPSVSKGLRQTATLTCTGNSNNVGNQGAAWLQQHQGQPPKLLSYRNHNRPSGVSERFSPSRSGDTSSLTITGLQPEDEADYYCLAWDSSLRAFVFGTGTKLTVL is less than 2 nM?
## Result met

## Task Is it true that EC50 reported for D1-2/LO (antibody, V domains shown, tested as IgG. '/LO' not explained) VH: QVQLVQSGAEVKKPGASVKVSCKASGYTFTGYHMHWVRQAPGQGLEWMGIINPSGGSTSYAQKFQGRVTMTRDTSTSTVYMELSSLRSEDTAVYYCATGGFGYWGEGTLVTVSS VL: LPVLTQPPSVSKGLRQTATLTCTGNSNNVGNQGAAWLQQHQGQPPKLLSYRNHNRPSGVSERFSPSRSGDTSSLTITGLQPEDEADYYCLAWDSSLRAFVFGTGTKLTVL is less than 2 nM?
## Result not met

## Task Is it true that EC50 reported for 1G11 (antibody, human IgG1, V domains shown) VH: EVQLVESGAEVKKPGASVKVSCKASGYIFTGYYIHWVRQAPGQGLEWMGWINPNNGVTKYAEKFQGRVTMTRDTSITTAYMDLSRLRSDDTAIYYCATGGFEYWGQGTLVTVSS VL: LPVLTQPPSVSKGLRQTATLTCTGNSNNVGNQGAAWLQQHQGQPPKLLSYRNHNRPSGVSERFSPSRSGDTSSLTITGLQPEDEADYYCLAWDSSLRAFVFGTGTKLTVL is less than 2 nM?
## Result met

## Task Is it true that EC50 reported for 42G7 (antibody, V domains shown, tested as IgG) VH: QVQLVQSGAEVKKPGASVKVSCKASGYTFSSYYMHWVRQAPGQGLEWMGIINPSGGNTSYAQKFQGRVTMTRDTSTSTVYMELSSLRSEDTAVYYCARGGYQLPHGRARAFDMWGQGTMVTVSS VL: AIRMTQSPLSLPVTLGQPASISCTSSQSLVYRDGTTYLNWFQQRPGQSPRRLIYKVSNRDSGVPDRFTGSGSGTTFTLTISRVEAEDVGIYYCMQGTHWPLTFGQGTKVEI is less than 2 nM?
## Result not met

## Task Is it true that EC50 reported for D1-6/LO (antibody, V domains shown, tested as IgG. '/LO' not explained) VH: QVQLVQSGAEVKKPGASVKVSCKASGYTFTGYHMHWVRQAPGQGLEWMGIINPSSGSTKYAQKFQGRVTMTRDTSTSTVYMELSSLRSEDTAVYYCATGGFGYWGEGTLVTVSS VL: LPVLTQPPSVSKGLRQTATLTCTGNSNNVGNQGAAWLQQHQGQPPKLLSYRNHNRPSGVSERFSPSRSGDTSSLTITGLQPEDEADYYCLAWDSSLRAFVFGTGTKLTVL is less than 2 nM?
## Result not met

## Task Is it true that EC50 reported for 1H5 (antibody, V domains shown, tested as IgG) VH: EVQLVQSGAEVKKPGASVKVSCKASGYTFTSYYMHWVRQAPGQGLEWMGIINPSGGSTSYAHKFQGRVTMTRDTSTSTVYMELSSLRSEDTAVYYCARGGHVLRFLEWLGLEGPFDYWGQGTLVTVSS VL: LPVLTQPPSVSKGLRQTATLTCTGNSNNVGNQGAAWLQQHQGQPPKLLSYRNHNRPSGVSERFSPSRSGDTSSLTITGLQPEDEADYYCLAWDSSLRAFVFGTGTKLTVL is less than 2 nM?
## Result met

## Task Is it true that EC50 reported for 1B2 (antibody, human IgG1, V domains shown) VH: EVQLVESGAEVKKPGASVKVSCKASGYTFTGYYMNWVRQAPGQGLEWMGWINPNSGGTKYAQKFQGRVTMTSDTSINTAYMELSRLRYDDTAVYYCATGGFQHWGQGTLVTVSS VL: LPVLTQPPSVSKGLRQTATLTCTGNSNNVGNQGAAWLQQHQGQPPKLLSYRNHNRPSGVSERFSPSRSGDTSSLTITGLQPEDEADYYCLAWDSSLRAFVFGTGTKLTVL is less than 2 nM?
## Result met
